measuredOn: T1, Human BSSL (bile salt-stimulated lipase), native (human, UniProt P19835 21-753)
T1 sequence: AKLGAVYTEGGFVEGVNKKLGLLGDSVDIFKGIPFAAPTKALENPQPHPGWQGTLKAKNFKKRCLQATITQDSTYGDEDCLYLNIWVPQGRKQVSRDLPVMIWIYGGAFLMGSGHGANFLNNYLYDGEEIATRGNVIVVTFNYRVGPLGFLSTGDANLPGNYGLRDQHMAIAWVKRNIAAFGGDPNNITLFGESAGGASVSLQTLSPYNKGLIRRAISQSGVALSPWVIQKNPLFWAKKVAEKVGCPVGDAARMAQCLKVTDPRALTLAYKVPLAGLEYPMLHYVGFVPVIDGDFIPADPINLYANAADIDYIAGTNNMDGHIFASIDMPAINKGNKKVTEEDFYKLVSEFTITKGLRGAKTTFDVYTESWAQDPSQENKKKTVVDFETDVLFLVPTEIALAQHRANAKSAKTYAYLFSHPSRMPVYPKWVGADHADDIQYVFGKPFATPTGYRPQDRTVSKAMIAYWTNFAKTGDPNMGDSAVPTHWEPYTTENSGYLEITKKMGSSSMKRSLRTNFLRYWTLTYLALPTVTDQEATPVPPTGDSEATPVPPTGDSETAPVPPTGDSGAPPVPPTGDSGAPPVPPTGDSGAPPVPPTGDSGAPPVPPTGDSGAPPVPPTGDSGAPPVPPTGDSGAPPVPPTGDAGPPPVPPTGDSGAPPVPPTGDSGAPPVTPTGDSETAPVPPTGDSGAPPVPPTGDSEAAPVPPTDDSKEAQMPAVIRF
test: cell-based or functional assay
valueKind: BSSL hydrolysis of triglycerides, relative value (no antibody = 100%); 0.75 ug antibody
Answer format: value, then unit.

Query :: What measured BSSL hydrolysis of triglycerides, relative value (no antibody = 100%); 0.75 ug antibody goes with S-SL048-116 hIgG4 S228P (antibody, V domains shown, also called mAb116) VH: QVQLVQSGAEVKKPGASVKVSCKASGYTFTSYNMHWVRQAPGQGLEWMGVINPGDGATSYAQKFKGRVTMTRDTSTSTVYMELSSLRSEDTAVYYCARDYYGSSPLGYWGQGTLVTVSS VL: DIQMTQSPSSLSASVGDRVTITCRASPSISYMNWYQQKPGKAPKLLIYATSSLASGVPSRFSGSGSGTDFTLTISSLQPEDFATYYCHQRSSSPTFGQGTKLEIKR ?
Result :: 100%
